These data points were gathered from patent US8735388B2.

Target: Muscarine M2 (GPCR-A-MA-ACH M2) (Cavia porcellus)
Construct: from tissue; host or cells: guinea pig left atrium (electrically paced)
Sequence (H0VRN8 1-466): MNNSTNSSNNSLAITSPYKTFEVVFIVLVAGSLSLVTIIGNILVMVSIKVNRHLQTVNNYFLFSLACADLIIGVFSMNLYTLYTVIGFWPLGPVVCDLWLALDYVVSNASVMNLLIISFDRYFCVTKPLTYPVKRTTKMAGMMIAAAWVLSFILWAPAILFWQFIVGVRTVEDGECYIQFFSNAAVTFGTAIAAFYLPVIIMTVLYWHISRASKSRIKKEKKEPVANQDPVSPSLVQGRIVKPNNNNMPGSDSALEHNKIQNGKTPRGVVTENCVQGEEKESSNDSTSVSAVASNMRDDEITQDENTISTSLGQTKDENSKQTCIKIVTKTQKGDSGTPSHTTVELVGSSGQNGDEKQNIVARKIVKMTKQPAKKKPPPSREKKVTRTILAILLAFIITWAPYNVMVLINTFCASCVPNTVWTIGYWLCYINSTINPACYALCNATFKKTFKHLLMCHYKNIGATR
Test: Muscarine M2 functional assay, isolated organ (left atrium, electrically paced), agonist and antagonist mode
Set-up: species or system Guinea Pig
Property: Kb

Use these answered entries as a reference point.
>>> result("CCCCCSc1c[nH]nc1C1CN2CCC1CC2 (centres unmarked) [Compound 49B]")
"> 1000 nM"
>>> result("CCCCCCSc1c[nH]nc1C1CN2CCC1CC2 (centres unmarked) [Compound 49F]")
"> 1000 nM"
>>> result("CCCCCOc1c[nH]nc1C1CN2CCC1CC2 (centres unmarked) [Compound 52C]")
"> 1000 nM"

Give Kb for the following molecule: CCCCOc1c[nH]nc1C1CN2CCC1CC2 (centres unmarked) [Compound 52A]
> 1000 nM

Find the measured Kb of COc1ccccc1CNCCCCCCNCCCCCCCCNCCCCCCNCc1ccccc1OC [Methoctramine, reference compound] and report it.
12.6 nM

Give Kb for CCOCCSc1c[nH]nc1C1=CCCN(C)C1 [Compound 22O]
20 nM

Recall and state the measured Kb for CCCSc1c[nH]nc1C1CN2CCC1CC2 (centres unmarked) [Compound 49E] .
> 1000 nM

Name the recorded Kb of the item CCCOc1c[nH]nc1C1CN2CCC1CC2 (centres unmarked) [Compound 52B] in your answer.
25.1 nM

* * *

test: Stability in human liver homogenate (metabolic stability in vitro); format: in vitro ADME; conditions: read-out: t ½
Property: half-life (min)
Kindly answer with a numeric value in min, unit omitted.

Worked examples follow.
>>> quantitative_result("CCCCCOc1c[nH]nc1C1=CCCN(C)C1 [Compound 33G]")
56
>>> quantitative_result("CN1CCC=C(c2n[nH]cc2SCCC=C(F)F)C1 [Compound 22J]")
129
>>> quantitative_result("CCOCCSc1c[nH]nc1C1=CCCN(C)C1 [Compound 22O]")
245
>>> quantitative_result("CCCCCSc1c[nH]nc1C1=CCCN(C)C1 [Compound 22G]")
50
>>> quantitative_result("C=CCCCOc1c[nH]nc1C1=CCCN(C)C1 [Compound 33F]")
230
>>> quantitative_result("CCCCCCOc1nsnc1C1=CCCN(C)C1 [Xanomeline, reference compound]")
17
>>> quantitative_result("C=CCCCSc1c[nH]nc1C1=CCCN(C)C1 [Compound 22L]")
56

Kindly review the next compound as well.
Please look at this compound and report its half-life: CN1CCC=C(c2n[nH]cc2SCCCC(F)(F)F)C1 [Compound 22B]
52
